# experiment notes: cell viability in Huh7 cells, primary screen, cytotoxicity control for HCV replication inhibitor project, CellTiter-Glo luminescence, basal, 48 h (AID 1143);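 note: Huh7 hepatoma cells carrying a hepatitis C replication reporter with no stimulus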
# assay conditions: Huh7 HCV replicon, higher = more signal, called active from +8 up or from −8 down
Give TRUE when the value for z-score is at least -0.3. Give FALSE when it is less.

// known answers, use as guide
CC[C@@H](c1ccccc1)n1c(=O)n2n(c1=O)[C@H]1[C@H](O)[C@@H]3O[C@@H]3C(=NOCc3ccccc3)[C@H]1CC2 : FALSE
CCOC(=O)[C@H](CC(C)C)NC(=O)CCC1CC(OC(=O)NCCc2ccc(F)cc2)CC2(CCCC(COC(=O)NCc3cccc4ccccc34)O2)O1 (stereo not given in full) : FALSE
CCO[C@H](c1cc(OC)cc([N+](=O)[O-])c1OC)[C@H](C)[C@@H](OC)[C@H](C)C=CCC(=O)OC : TRUE
OC[C@H]1O[C@H](C#Cc2ccccc2)C=C[C@@H]1O : FALSE

q: Check this compound for z-score at or above -0.3: `CON(C)C(=O)c1nnc2c(n1)[nH]c1ccccc12`
a: TRUE

====

# target or system: NADPH oxidase 4 (Homo sapiens)
# experiment notes: NOX4-dependent H2O2 signal modulators, primary screen, NOX inhibitor project, cell-based, HEK293-NOX4, tetracycline-induced, Amplex Red fluorescence (AID 1160)
# assay conditions: 45 min, higher = more signal, called active from +8 up or from −8 down
Items are presented alongside their recorded z-score.
Write no unit; give the number alone.

COc1ccc(COC(=O)NN=C2C[C@@H](O)[C@@H](O)[C@@H]3[C@@H]4C(=O)N(C5CCCCC5)C(=O)[C@@H]4CC[C@@H]23)cc1 : -0.069
CC(CCN1CCCc2nc(C)c(C)cc21)=NOC[C@@H](O)COCc1ccco1 : -0.583
CCOC(=O)[C@H](Cc1ccccc1)NC(=O)CCC1CC(OC(=O)NCc2ccc3c(c2)OCO3)CC2(CCCC(COC(=O)NCCc3ccc(Cl)cc3)O2)O1 (some centres undefined) : 0.396

q: I have this compound here, `C=CC[C@@H]1C=C[C@H](ON=C(C)CCN2CCCc3nc(C)c(C)cc32)[C@@H](CO)O1` , and I need its recorded z-score.
a: -0.0344

====

Items are presented alongside their recorded composite z-score.
# experiment notes: small-molecule microarray binders of probe aWnt5a, primary screen, biochemical, biotinylated probe, 635/667 nm fluorescence (AID 1113);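 note: score merges 667 nm fluorescence intensity with signal-to-noise per printed feature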
# assay conditions: higher = more signal
Write no unit; give the number alone.

These recorded examples may help you get a feel for the data.
CCOC(=O)CCN1C(=O)[C@H]2[C@H]3[C@H](O)[C@H](O)CC(=NO[C@@H]4O[C@H](CO)[C@@H](O)[C@H](O)[C@H]4O)[C@@H]3CC[C@H]2C1=O : -0.0417
COCC#Cc1ccc([C@@H]2N[C@H](C(=O)O)CC[C@H]2C)cc1 : -0.224
COc1ccc(COC(=O)NN=C2C[C@@H](O)[C@@H](O)[C@@H]3[C@@H]4C(=O)N(C[C@@H]5CCCO5)C(=O)[C@@H]4CC[C@@H]23)cc1 : -0.172

q: I have this molecule here, `CCOC(=O)CCN1C(=O)[C@H]2[C@H]3[C@H](O)[C@H](O)CC(=NNC(=O)OCc4ccccc4)[C@H]3CC[C@H]2C1=O` , and I need its recorded composite z-score.
a: -0.0045

====

# Tested on: XIP peptide (Xip251-270) binding
# experiment notes: small-molecule binders of XIP peptide, primary screen, biochemical, small-molecule microarray, fluorescence 635/667 nm, 0.1 µg/mL protein (AID 1182)
# assay conditions: fluorescent protein binding, 635 nm, higher = more signal, called active from +8 up or from −8 down
Activity calls are given as the source filed them.
readout kind: composite z-score

CCc1cc2c(nc1CC)CCN(CCC(C)=NOC(C)CN1CCCCc3nc(C)c(C)cc31)C2 (stereo unspecified) : 0.531 (inactive)
O=C1C[C@@H](O)[C@@H](O)[C@@H]2[C@@H]3C(=O)N(Cc4ccccc4)C(=O)[C@@H]3CC[C@H]12 : -0.317 (inactive)
CC(CCN1CCCc2nc(C)c(C)cc21)=NOC[C@@H](O)COCc1ccco1 : 4.43 (inactive)
COC(=O)[C@H](C)NC(=O)CCC1CC(OC(=O)NCCc2ccc(F)cc2)CC2(CCCC(COC(=O)NCCc3ccccc3OC)O2)O1 (stereo partly specified) : 0.784 (inactive)

q: I have this compound here, `CCN1C(=O)[C@H]2[C@H]3[C@H](O)[C@H](O)CC(=NO[C@H](C)c4cn([C@@H]5COC[C@H]5O)nn4)[C@@H]3CC[C@H]2C1=O` , and I need its recorded composite z-score.
a: 0.0118 (inactive)

q: I have this compound here, `O=C1[C@H]2CCn3c(=O)n(Cc4cc5c(cc4Cl)OCO5)c(=O)n3[C@H]2[C@H](O)[C@@H]2O[C@H]12` , and I need its recorded composite z-score.
a: 0.188 (inactive)

q: I have this compound here, COC(=O)[C@H](C)NC(=O)CCC1CC(OC(=O)NCCc2ccc(F)cc2)CC2(CCCC(COC(=O)NCc3ccccc3)O2)O1 (stereo partly specified) , and I need its recorded composite z-score.
a: 0.166 (inactive)

q: I have this compound here, COC(=O)CC=C[C@@H](C)[C@@H](C=NOC(C)CN1CCCCc2nc(C)c(C)cc21)NS(=O)(=O)c1ccc(C)cc1 (stereo partly specified) , and I need its recorded composite z-score.
a: -0.598 (inactive)

q: I have this compound here, `CC(C)=CCCC(C)=CCON=C1C[C@@H](O)[C@@H](O)[C@@H]2[C@@H]3C(=O)N([C@@H](C)c4ccccc4)C(=O)[C@@H]3CC[C@@H]12` , and I need its recorded composite z-score.
a: 0.0439 (inactive)

q: I have this compound here, COC(=O)C(C(=O)OC)C1CCCC(=O)C1 (stereo unspecified) , and I need its recorded composite z-score.
a: -0.0977 (inactive)

q: I have this compound here, `COc1ccc(O[C@H]2C=C[C@@H](C#Cc3ccccc3)O[C@@H]2CO)cc1` , and I need its recorded composite z-score.
a: -0.727 (inactive)

q: I have this compound here, COC(=O)CC=C[C@@H](C)[C@@H](C=NOC(C)CN1CCCCc2nc(C)c(C)cc21)OC (stereo partly specified) , and I need its recorded composite z-score.
a: 0.771 (inactive)

q: I have this compound here, `COc1ccc(O[C@H]2C=C[C@@H](c3ccccc3)O[C@@H]2COC(=O)CCC(C)=NOC[C@@H](O)COCc2ccco2)cc1` , and I need its recorded composite z-score.
a: -0.0073 (inactive)

q: I have this compound here, `CCOC(=O)NN=C1C[C@@H](O)[C@@H](O)[C@@H]2[C@@H]3C(=O)N(C[C@@H]4CCCO4)C(=O)[C@@H]3CC[C@H]12` , and I need its recorded composite z-score.
a: 0.0272 (inactive)

q: I have this compound here, `CON=C1c2cc(OC)ccc2O[C@H](c2cccc(OC)c2)[C@H]1O` , and I need its recorded composite z-score.
a: 0.906 (inactive)

q: I have this compound here, `CC(CCN1CCCCc2nc(C)c(C)cc21)=NO[C@H](C)c1cn([C@@H]2COC[C@H]2O)nn1` , and I need its recorded composite z-score.
a: 0.641 (inactive)

====

# experiment notes: small-molecule microarray binders of probe aCHRDL2, primary screen, biochemical, biotinylated probe, 635/667 nm fluorescence (AID 1100)
# assay conditions: higher = more signal
Give rule met when the value for composite z-score is at least -0.05. Give rule not met when it is less.

// known answers, use as guide
O=C1C[C@@H](O)[C@@H](O)[C@@H]2[C@@H]3C(=O)N(C4CCCCC4)C(=O)[C@@H]3CC[C@@H]12 : rule not met
CC(C)=CCCC(C)=CCON=C1C[C@@H](O)[C@@H](O)[C@@H]2[C@@H]3C(=O)N(c4cccc(Oc5ccccc5)c4)C(=O)[C@@H]3CC[C@H]12 : rule not met
CCN1C(=O)[C@H]2[C@H]3[C@H](O)[C@H](O)CC(=NNC(=O)OCc4ccccc4)[C@H]3CC[C@H]2C1=O : rule met
C#CCCCON=C1C[C@@H](O)[C@@H](O)[C@@H]2[C@@H]3C(=O)N(C[C@@H]4CCCO4)C(=O)[C@@H]3CC[C@H]12 : rule not met

q: Check this compound for composite z-score at or above -0.05: `CC(=O)OC[C@H]1O[C@@H](ON=C(C)C)[C@H](OC(C)=O)[C@@H](OC(C)=O)[C@@H]1OC(C)=O`
a: rule met

q: Check this compound for composite z-score at or above -0.05: COC(=O)[C@H](C)NC(=O)CCC1CC(OC(=O)NCc2cccc3ccccc23)CC2(CCCC(COC(=O)NCc3cccc(C(F)(F)F)c3)O2)O1 (some centres undefined)
a: rule not met

q: Check this compound for composite z-score at or above -0.05: `COCC#Cc1ccc([C@@H]2N[C@H](C(=O)O)CC[C@H]2C)cc1`
a: rule met

q: Check this compound for composite z-score at or above -0.05: CCOC(=O)[C@H](CC(C)C)NC(=O)CCC1CC(OC(=O)NCc2ccc3c(c2)OCO3)CC2(CCCC(COC(=O)NCc3ccccc3)O2)O1 (some centres undefined)
a: rule not met
